System: SK-MEL-2
assay.comment: Growth inhibition of human SK-MEL-2 cells assessed as reduction in cell viability measured after 48 hrs by SRB assay
Type: functional
In this section we review reported GI50 values for a set of compounds.
Dear colleague, please return just the value in nM, with no unit written.

CC(C)(C)n1cc(-c2ccnc(NCCCNS(=O)(=O)c3ccc(Cl)cc3)c2)c(-c2cccc(O)c2)n1
1920

Entry CC(C)(C)n1cc(-c2ccnc(NCCCNS(=O)(=O)c3ccc(C(F)(F)F)cc3)c2)c(-c2cccc(O)c2)n1 , GI50 reported as 2100

Entry CC(C)(C)n1cc(-c2ccnc(NCCCNS(=O)(=O)c3cccc4ccccc34)c2)c(-c2cccc(O)c2)n1 , GI50 reported as 1880

Entry CC(C)(C)n1cc(-c2ccnc(NCCCNS(=O)(=O)c3ccc(Br)cc3)c2)c(-c2cccc(O)c2)n1 , GI50 reported as 2130

Entry O=C1c2ccccc2-c2n[nH]c3cccc1c23 , GI50 reported as 29000

###

experimental.target: Mitogen-activated protein kinase 9 (Homo sapiens)
Sequence (P45984 whole entry, looked up): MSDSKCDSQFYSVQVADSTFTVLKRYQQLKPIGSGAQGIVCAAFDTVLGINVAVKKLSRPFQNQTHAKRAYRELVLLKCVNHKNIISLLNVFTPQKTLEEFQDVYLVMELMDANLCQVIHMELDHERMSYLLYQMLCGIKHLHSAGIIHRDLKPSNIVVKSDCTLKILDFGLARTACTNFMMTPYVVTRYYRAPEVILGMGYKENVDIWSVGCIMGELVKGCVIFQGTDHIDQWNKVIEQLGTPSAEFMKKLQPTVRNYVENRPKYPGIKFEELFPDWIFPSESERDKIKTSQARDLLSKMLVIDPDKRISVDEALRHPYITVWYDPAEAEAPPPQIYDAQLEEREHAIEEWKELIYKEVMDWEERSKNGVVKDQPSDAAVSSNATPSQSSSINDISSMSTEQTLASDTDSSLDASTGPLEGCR
assay.comment: Inhibition of human JNK2 at 10 uM in presence of ATP relative to control
attribute.measured: inhibition (%)
Dear colleague, please return just the value in %, with no unit written.

Please review the entries below; each comes with its answer.
CC(C)(C)n1cc(-c2ccnc(NCCCNS(=O)(=O)c3ccccc3)c2)c(-c2cccc(O)c2)n1
98.5
COc1cccc(-c2nn(C(C)(C)C)cc2-c2ccnc(NCCCNS(=O)(=O)c3ccc(Cl)cc3)c2)c1
68.2
CC(C)(C)n1cc(-c2ccnc(NCCCNS(=O)(=O)c3ccc(Cl)cc3)c2)c(-c2cccc(O)c2)n1
98.9
CC(C)(C)n1cc(-c2ccnc(NCCCNS(=O)(=O)c3cccc(F)c3)c2)c(-c2cccc(O)c2)n1
98.5
Cc1ccc(S(=O)(=O)NCCCNc2cc(-c3cn(C(C)(C)C)nc3-c3cccc(O)c3)ccn2)cc1
98.8

Entry COc1ccc(S(=O)(=O)NCCNc2cc(-c3cn(C(C)(C)C)nc3-c3cccc(O)c3)ccn2)cc1 , inhibition reported as 94.4

Entry CC(C)(C)n1cc(-c2ccnc(NCCCNS(=O)(=O)c3ccc(F)cc3)c2)c(-c2cccc(O)c2)n1 , inhibition reported as 98.9

Entry CC(C)(C)n1cc(-c2ccnc(NCCCNS(=O)(=O)c3cccc4ccccc34)c2)c(-c2cccc(O)c2)n1 , inhibition reported as 99.1

###

Test system: HCT-15
assay.comment: Growth inhibition of human HCT-15 cells assessed as reduction in cell viability measured after 48 hrs by SRB assay
Assay type: functional
attribute.measured: GI50 (nM)
Dear colleague, please return just the value in nM, with no unit written.

Please review the entries below; each comes with its answer.
CC(C)(C)n1cc(-c2ccnc(NCCCNS(=O)(=O)c3cccc4ccccc34)c2)c(-c2cccc(O)c2)n1
1530
O=C1c2ccccc2-c2n[nH]c3cccc1c23
8040
CC(C)(C)n1cc(-c2ccnc(NCCCNS(=O)(=O)c3ccc(Br)cc3)c2)c(-c2cccc(O)c2)n1
1480

Entry CC(C)(C)n1cc(-c2ccnc(NCCCNS(=O)(=O)c3ccc(Cl)cc3)c2)c(-c2cccc(O)c2)n1 , GI50 reported as 1520

Entry CC(C)(C)n1cc(-c2ccnc(NCCCNS(=O)(=O)c3ccc(C(F)(F)F)cc3)c2)c(-c2cccc(O)c2)n1 , GI50 reported as 1470

###

In this section we review reported log10 GI50 values for a set of compounds.
System: Hs-578T
assay.comment: Growth inhibition of human Hs-578T cells assessed as reduction in cell viability measured after 48 hrs by SRB assay
Type: functional
Hello, just confirming the data are log10 of GI50 with units of nM.

Please review the entries below; each comes with its answer.
O=C1c2ccccc2-c2n[nH]c3cccc1c23
4.74
CC(C)(C)n1cc(-c2ccnc(NCCCNS(=O)(=O)c3ccc(Br)cc3)c2)c(-c2cccc(O)c2)n1
3.35

Entry CC(C)(C)n1cc(-c2ccnc(NCCCNS(=O)(=O)c3ccc(C(F)(F)F)cc3)c2)c(-c2cccc(O)c2)n1 , log10 GI50 reported as 3.30

Entry CC(C)(C)n1cc(-c2ccnc(NCCCNS(=O)(=O)c3cccc4ccccc34)c2)c(-c2cccc(O)c2)n1 , log10 GI50 reported as 3.28

Entry CC(C)(C)n1cc(-c2ccnc(NCCCNS(=O)(=O)c3ccc(Cl)cc3)c2)c(-c2cccc(O)c2)n1 , log10 GI50 reported as 3.26

###

Tested on: DU-145
assay.comment: Growth inhibition of human DU-145 cells assessed as reduction in cell viability measured after 48 hrs by SRB assay
Assay type: functional
attribute.measured: GI50 (nM)
Dear colleague, please return just the value in nM, with no unit written.

O=C1c2ccccc2-c2n[nH]c3cccc1c23
28200

Entry CC(C)(C)n1cc(-c2ccnc(NCCCNS(=O)(=O)c3ccc(C(F)(F)F)cc3)c2)c(-c2cccc(O)c2)n1 , GI50 reported as 1940

Entry CC(C)(C)n1cc(-c2ccnc(NCCCNS(=O)(=O)c3ccc(Cl)cc3)c2)c(-c2cccc(O)c2)n1 , GI50 reported as 2750

Entry CC(C)(C)n1cc(-c2ccnc(NCCCNS(=O)(=O)c3ccc(Br)cc3)c2)c(-c2cccc(O)c2)n1 , GI50 reported as 2100

Entry CC(C)(C)n1cc(-c2ccnc(NCCCNS(=O)(=O)c3cccc4ccccc34)c2)c(-c2cccc(O)c2)n1 , GI50 reported as 2650

###

In this section we review reported pIC50 values for a set of compounds.
experimental.target: Mitogen-activated protein kinase 10 (Homo sapiens, UniProt P53779)
Sequence (P53779 whole entry): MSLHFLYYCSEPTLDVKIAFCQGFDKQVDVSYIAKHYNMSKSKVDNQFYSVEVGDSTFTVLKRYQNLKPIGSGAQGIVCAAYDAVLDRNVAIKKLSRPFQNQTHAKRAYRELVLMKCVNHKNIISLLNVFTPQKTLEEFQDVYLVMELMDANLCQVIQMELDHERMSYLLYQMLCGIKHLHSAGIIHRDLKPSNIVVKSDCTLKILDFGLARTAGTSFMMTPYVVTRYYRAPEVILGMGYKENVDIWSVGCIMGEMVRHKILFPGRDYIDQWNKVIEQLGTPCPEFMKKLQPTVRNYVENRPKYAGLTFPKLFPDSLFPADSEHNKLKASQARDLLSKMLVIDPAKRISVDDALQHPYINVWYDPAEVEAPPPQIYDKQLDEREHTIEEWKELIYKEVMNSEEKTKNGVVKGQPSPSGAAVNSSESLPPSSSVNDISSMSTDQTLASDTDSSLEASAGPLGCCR
assay.comment: Inhibition of human JNK3 in presence of ATP
Quick note: pIC50 means taking -log10 of the concentration in moles per liter.

Please review the entries below; each comes with its answer.
CC(C)(C)n1cc(-c2ccnc(NCCCNS(=O)(=O)c3ccc(F)cc3)c2)c(-c2cccc(O)c2)n1
8.00
CC(C)(C)n1cc(-c2ccnc(NCCCNS(=O)(=O)c3ccccc3)c2)c(-c2cccc(O)c2)n1
7.69

Could you now look at the following compound, please?
Entry COc1ccc(S(=O)(=O)NCCCNc2cc(-c3cn(C(C)(C)C)nc3-c3cccc(O)c3)ccn2)cc1 , pIC50 reported as 7.98

###

In this section we review reported GI50 values for a set of compounds.
Tested on: NCI-H460
assay.comment: Growth inhibition of human NCI-H460 cells assessed as reduction in cell viability measured after 48 hrs by SRB assay
Format: functional
Give the figure together with its unit, number first.

Please review the entries below; each comes with its answer.
CC(C)(C)n1cc(-c2ccnc(NCCCNS(=O)(=O)c3ccc(C(F)(F)F)cc3)c2)c(-c2cccc(O)c2)n1
1860 nM
CC(C)(C)n1cc(-c2ccnc(NCCCNS(=O)(=O)c3ccc(Cl)cc3)c2)c(-c2cccc(O)c2)n1
1940 nM
CC(C)(C)n1cc(-c2ccnc(NCCCNS(=O)(=O)c3ccc(Br)cc3)c2)c(-c2cccc(O)c2)n1
1990 nM
O=C1c2ccccc2-c2n[nH]c3cccc1c23
9860 nM

Could you now look at the following compound, please?
Entry CC(C)(C)n1cc(-c2ccnc(NCCCNS(=O)(=O)c3cccc4ccccc34)c2)c(-c2cccc(O)c2)n1 , GI50 reported as 1930 nM

###

Tested on: UO-31
assay.comment: Growth inhibition of human UO-31 cells assessed as reduction in cell viability measured after 48 hrs by SRB assay
Format: functional
attribute.measured: GI50 (nM)
Dear colleague, please return just the value in nM, with no unit written.

O=C1c2ccccc2-c2n[nH]c3cccc1c23
10500
CC(C)(C)n1cc(-c2ccnc(NCCCNS(=O)(=O)c3ccc(Cl)cc3)c2)c(-c2cccc(O)c2)n1
1890
CC(C)(C)n1cc(-c2ccnc(NCCCNS(=O)(=O)c3cccc4ccccc34)c2)c(-c2cccc(O)c2)n1
2260

Entry CC(C)(C)n1cc(-c2ccnc(NCCCNS(=O)(=O)c3ccc(Br)cc3)c2)c(-c2cccc(O)c2)n1 , GI50 reported as 1660

Entry CC(C)(C)n1cc(-c2ccnc(NCCCNS(=O)(=O)c3ccc(C(F)(F)F)cc3)c2)c(-c2cccc(O)c2)n1 , GI50 reported as 1580

###

Tested on: U-251
assay.comment: Growth inhibition of human U-251 cells assessed as reduction in cell viability measured after 48 hrs by SRB assay
Format: functional
Under this convention, 1 denotes GI50 strictly below 2 µM and 0 denotes GI50 at or above 2 µM.

Answered cases to consult:
O=C1c2ccccc2-c2n[nH]c3cccc1c23
0
CC(C)(C)n1cc(-c2ccnc(NCCCNS(=O)(=O)c3cccc4ccccc34)c2)c(-c2cccc(O)c2)n1
1
CC(C)(C)n1cc(-c2ccnc(NCCCNS(=O)(=O)c3ccc(C(F)(F)F)cc3)c2)c(-c2cccc(O)c2)n1
1
CC(C)(C)n1cc(-c2ccnc(NCCCNS(=O)(=O)c3ccc(Cl)cc3)c2)c(-c2cccc(O)c2)n1
1

Then there is this compound:
Ask: For this compound, is GI50 lower than 2 µM? CC(C)(C)n1cc(-c2ccnc(NCCCNS(=O)(=O)c3ccc(Br)cc3)c2)c(-c2cccc(O)c2)n1
Reply: 1
